Origin of measurements: paper doi:10.1101/2025.10.26.684696v1

- TEST_PROTOCOL: Caco-2 cell permeability
- Format: in vitro ADME
Residues, ends and D or L forms follow the SMILES beside them.
REPORTED_METRIC: Papp B→A (×10⁻⁶ cm/s)
Number in ×10⁻⁶ cm/s, nothing else.

Q: # get_value(readout='Papp B→A', item= N=C(N)NCCC[C@@H]1NC(=O)CNC(=O)CNC(=O)[C@H](Cc2c[nH]cn2)NC(=O)CNC(=O)CNC(=O)[C@H](Cc2c[nH]c3ccccc23)NC(=O)[C@H](Cc2c[nH]c3ccccc23)NC(=O)CNC(=O)[C@H](CCCCN)NC(=O)CNC(=O)[C@H](CO)NC(=O)CNC(=O)CNC(=O)[C@H](Cc2c[nH]c3ccccc23)NC1=O [SP4] (cyclo(GGHGGRWGGSGKGWW)) )
Ans: 2.15

###

- TEST_PROTOCOL: Stability in simulated gastric fluid
- Format: in vitro ADME
- STATED_CONDITIONS: pH 1.6
Residues, ends and D or L forms follow the SMILES beside them.
REPORTED_METRIC: half-life (h)
Number in h, nothing else.

Q: # get_value(readout='half-life', item= N=C(N)NCCC[C@@H]1NC(=O)CNC(=O)CNC(=O)[C@H](Cc2c[nH]cn2)NC(=O)CNC(=O)CNC(=O)[C@H](Cc2c[nH]c3ccccc23)NC(=O)[C@H](Cc2c[nH]c3ccccc23)NC(=O)CNC(=O)[C@H](CCCCN)NC(=O)CNC(=O)[C@H](CO)NC(=O)CNC(=O)CNC(=O)[C@H](Cc2c[nH]c3ccccc23)NC1=O [SP4] (cyclo(GGHGGRWGGSGKGWW)) )
Ans: 1.8

###

- TEST_PROTOCOL: Caco-2 cell permeability
- Format: in vitro ADME
Residues, ends and D or L forms follow the SMILES beside them.
REPORTED_METRIC: Papp A→B

Q: # get_value(readout='Papp A→B', item= N=C(N)NCCC[C@@H]1NC(=O)CNC(=O)CNC(=O)[C@H](Cc2c[nH]cn2)NC(=O)CNC(=O)CNC(=O)[C@H](Cc2c[nH]c3ccccc23)NC(=O)[C@H](Cc2c[nH]c3ccccc23)NC(=O)CNC(=O)[C@H](CCCCN)NC(=O)CNC(=O)[C@H](CO)NC(=O)CNC(=O)CNC(=O)[C@H](Cc2c[nH]c3ccccc23)NC1=O [SP4] (cyclo(GGHGGRWGGSGKGWW)) )
Ans: 1.78 ×10⁻⁶ cm/s

###

- TEST_PROTOCOL: Stability in rat liver microsomes
- Type: in vitro ADME
Residues, ends and D or L forms follow the SMILES beside them.
REPORTED_METRIC: half-life
Include the unit right after the number.

Q: # get_value(readout='half-life', item= N=C(N)NCCC[C@@H]1NC(=O)CNC(=O)CNC(=O)[C@H](Cc2c[nH]cn2)NC(=O)CNC(=O)CNC(=O)[C@H](Cc2c[nH]c3ccccc23)NC(=O)[C@H](Cc2c[nH]c3ccccc23)NC(=O)CNC(=O)[C@H](CCCCN)NC(=O)CNC(=O)[C@H](CO)NC(=O)CNC(=O)CNC(=O)[C@H](Cc2c[nH]c3ccccc23)NC1=O [SP4] (cyclo(GGHGGRWGGSGKGWW)) )
Ans: 4.7 h
